target: CDK2/Cyclin E1 (Homo sapiens); experiment: ADP-Glo Luminescent Kinase Assay (CDK2/E1-37C); format: biochemical; details: 0.18 nM CDK2/Cyclin E1, 100 μM ATP, 1.5 μM Histone H1, 37° C., 60 min pre-incubation; read-out: ADPGLO (CDK2/E1-37C): IC50
PROPERTY NAME: IC50

[[record]]
compound = "C[C@@H](OCC1CCOCC1)[C@H](NC(=O)C1CN(C(=O)c2cnn(Cc3ccc(C(F)(F)F)cc3)c2)CC12CN(C(=O)C1(C(F)(F)F)CC1)C2)C(=O)N1CCC(c2ccc(C(=O)O)cc2)CC1 (stereo in doubt)"
property_name = "IC50"
result = "> 10 µM"


The compound listed as C[C@@H](OCC12CCC(CC1)OC2)[C@H](NC(=O)[C@@H]1CN(C(=O)c2cnc(O)cn2)CC12CN(C(=O)C1(C(F)(F)F)CC1)C2)C(=O)N1CCC(c2ccc(C(=O)O)c(C(F)(F)F)c2)CC1 [I-89 1st] has a reported IC50 of > 10 µM

The compound listed as C[C@@H](OCC1CCOCC1)[C@H](NC(=O)[C@@H]1CN(C(=O)c2cnc(O)cn2)CC12CN(C(=O)C1(C(F)(F)F)CC1)C2)C(=O)N1CCC(C(F)(F)F)CC1 has a reported IC50 of < 0.5 µM

* * *

biological target: CDK2/Cyclin E1 (Homo sapiens); test: ADP-Glo Luminescent Kinase Assay (CDK2/E1-37C); format: biochemical; conditions: 0.18 nM CDK2/Cyclin E1, 100 μM ATP, 1.5 μM Histone H1, 37° C., 60 min pre-incubation; read-out: ADPGLO (CDK2/E1-37C): IC50
PROPERTY NAME: IC50

// below: answered compounds
[[record]]
compound = "C[C@@H](OCC12CCC(CC1)OC2)[C@H](NC(=O)[C@@H]1CN(C(=O)c2cnn(Cc3ccc(C(F)(F)F)cc3)c2)CC12CN(C(=O)C1(C(F)(F)F)CC1)C2)C(=O)N1CCC(c2ccc(C(=O)O)nc2)CC1 [Example I-92]"
result = "< 0.5 µM"

[[record]]
compound = "C[C@@H](OCC1CCCCC1)[C@H](NC(=O)[C@@H]1CN(C(=O)c2cnn(Cc3ccccc3)c2)CC12CN(C(=O)[C@H]1CC1(C)C)C2)C(=O)NCCC(=O)O [Example I-41]"
result = "< 0.5 µM"

[[record]]
compound = "COC(=O)c1ccc([C@H](COCC23CCC(CC2)OC3)NC(=O)C2CN(C(=O)c3cnn(Cc4ccc(C#N)cc4)c3)CC23CN(C(=O)C2(C(F)(F)F)CC2)C3)cc1 (some centres unmarked) [Example I-24]"
result = "5 to 10 µM"

[[record]]
compound = "COC(=O)CCNC(=O)[C@@H](NC(=O)[C@@H]1CN(C(=O)c2cnn(Cc3ccc(F)cc3C(F)(F)F)c2)CC12CN(C(=O)C1(C(F)(F)F)CC1)C2)[C@@H](C)OCC12CCC(CC1)OC2 [Example I-110]"
result = "0.5 to 5 µM"


Now for another entry.
The compound listed as CNC(=O)[C@@H](NC(=O)[C@@H]1CN(C(=O)c2cncs2)CC12CN(CC1CCCO1)C2)[C@@H](C)OCC12CCC(CC1)OC2 (some centres unmarked) [Example I-48] has a reported IC50 of 5 to 10 µM

* * *

Target: CDK2/Cyclin E1 (Homo sapiens, UniProt P24941)
Assay: CDK2/Cyclin E1 Caliper LabChip EZ Reader mobility shift assay
Format: biochemical
Details: 2.5 nM CDK2/Cyclin E1, 100 μM ATP, 1.5 μM fluorescent peptide, 30 min pre-incubation; read-out: Caliper Assay (CDK2/CCNE1): IC50
Experimental: Inhibition of CDK2/Cyclin E1 activity in the presence of compounds of the present disclosure was evaluated using a CaliperLabChip® EZ Reader mobility shift assay. […] The peptide substrate and product were measured, and the conversion ratio was used to determine the inhibition (as % activity and IC50 values) of CDK2/Cyclin E1. […]
pIC50: −log10 of the molar value.
Each entry below carries its recorded pIC50.

// below: answered compounds
[[record]]
compound = "C[C@@H](OCC1(CO)CC=CCC1)[C@H](NC(=O)[C@@H]1CN(C(=O)c2cncs2)CC12CN(C(=O)[C@H]1CC1(C)C)C2)C(=O)N1CCC(C)(C)CC1 (some centres unmarked)"
property_name = "pIC50"
result = "> 8.00"

[[record]]
compound = "COC(=O)CCNC(=O)[C@@H](NC(=O)[C@@H]1CN(C(=O)c2cnn(Cc3ccccc3)c2)CC12CN(C(=O)[C@H]1CC1(C)C)C2)[C@@H](C)OCC1CCCCC1"
property_name = "pIC50"
result = "> 8.00"

[[record]]
compound = "CNC(=O)C(NC(=O)[C@@H]1CN(C(=O)c2cncs2)CC12CN(CC1CCCO1)C2)[C@@H](C)OCC12CCC(CC1)OC2 (some centres unmarked)"
property_name = "pIC50"
result = "6.00 to 7.00"

[[record]]
compound = "C[C@@H](OCC1(CO)CC=CCC1)C(NC(=O)[C@@H]1CN(C(=O)c2cnco2)CC12CN(C(=O)C(C)(C)C1CC1)C2)C(C)(C)O (single isomer, unassigned)"
property_name = "pIC50"
result = "6.00 to 7.00"


Now for another entry.
The compound listed as Cc1nc(C)c(C(=O)N2C[C@@H](C(=O)NC(C(=O)N3CCC(C(F)(F)F)CC3)[C@@H](C)OCC3(CO)CC=CCC3)C3(C2)CN(C(=O)[C@H]2CC2(C)C)C3)s1 (some centres unmarked) has a reported pIC50 of > 8.00

* * *

target: CDK2/Cyclin E1 (Homo sapiens, UniProt P24941); assay: ADP-Glo Luminescent Kinase Assay (CDK2/E1-37C); type: biochemical; settings: 0.18 nM CDK2/Cyclin E1, 100 μM ATP, 1.5 μM Histone H1, 37° C., 60 min pre-incubation; read-out: ADPGLO (CDK2/E1-37C): IC50
pIC50: −log10 of the molar value.
PROPERTY NAME: pIC50

// below: answered compounds
[[record]]
compound = "C[C@@H](OCC12CCC(CC1)OC2)[C@@H](COC1CCC(c2nccs2)CC1)NC(=O)[C@@H]1CN(C(=O)c2cnn(Cc3ccc(C(F)(F)F)cc3)c2)CC12CN(C(=O)C1(C(F)(F)F)CC1)C2 (stereo partly shown)"
result = "5.30 to 6.30"

[[record]]
compound = "C[C@@H](OCC12CCC(CC1)OC2)[C@H](NC(=O)[C@@H]1CN(C(=O)c2cnn(Cc3ccc(C(F)(F)F)cc3)c2)CC12CN(C(=O)C1(C(F)(F)F)CC1)C2)C(=O)N1CCC(c2cc(F)c(C(=O)O)c(F)c2)CC1"
result = "> 6.30"

[[record]]
compound = "CNC(=O)[C@@H](NC(=O)[C@@H]1CN(C(=O)c2cncs2)CC12CN(CC1CCCO1)C2)[C@@H](C)OCC1(CO)CC=CCC1 (stereo partly shown)"
result = "< 5.00"

[[record]]
compound = "C[C@@H](OCC12CCC(CC1)OC2)[C@H](NC(=O)[C@@H]1CN(C(=O)c2cnn(Cc3ccccc3C(=O)O)c2)CC12CN(C(=O)C1(C(F)(F)F)CC1)C2)C(=O)NCCC1CCNCC1 (stereo in doubt)"
result = "5.30 to 6.30"

[[record]]
compound = "COC(=O)CC1CN(C(=O)[C@@H]2CN(C(=O)c3cncs3)CC23CN(C(=O)[C@H]2CC2(C)C)C3)CCN1CC1CCCCC1 (stereo partly shown)"
result = "< 5.00"

[[record]]
compound = "C[C@@H](OCC12CCC(CC1)OC2)[C@H](NC(=O)[C@@H]1CN(C(=O)c2cnn(Cc3ccc(C(F)(F)F)cc3)c2)CC12CN(C(=O)C1(C(F)(F)F)CC1)C2)C(=O)N1CCC(c2ccc(C(=O)O)c(O)c2)CC1"
result = "> 6.30"


The compound listed as C[C@@H](OCC12CCC(CC1)OC2)[C@@H](CN1CCC(C(=O)O)CC1)NC(=O)[C@@H]1CN(C(=O)c2cnn(Cc3ccc(C(F)(F)F)cc3)c2)CC12CN(C(=O)C1(C(F)(F)F)CC1)C2 has a reported pIC50 of < 5.00

The compound listed as C[C@@H](OCC1CCCCC1)[C@H](NC(=O)[C@@H]1CN(C(=O)c2cnn(Cc3ccccc3)c2)CC12CN(C(=O)[C@H]1CC1(C)C)C2)C(=O)NCCC(=O)NS(C)(=O)=O has a reported pIC50 of > 6.30

The compound listed as C[C@@H](OCC1CCC2(CCC2)CC1)[C@H](NC(=O)[C@@H]1CN(C(=O)c2cnn(Cc3ccccc3)c2)CC12CN(C(=O)[C@H]1CC1(C)C)C2)C(=O)O has a reported pIC50 of > 6.30

The compound listed as C[C@@H](OCC12CCC(CC1)OC2)[C@H](NC(=O)[C@@H]1CN(C(=O)c2cnn(Cc3ccc(C(F)(F)F)cc3)c2)CC12CN(C(=O)C1(C(F)(F)F)CC1)C2)C(=O)NCCc1nnn[nH]1 has a reported pIC50 of 5.00 to 5.30
